B1: library; numbered along this chain (parent)
chain: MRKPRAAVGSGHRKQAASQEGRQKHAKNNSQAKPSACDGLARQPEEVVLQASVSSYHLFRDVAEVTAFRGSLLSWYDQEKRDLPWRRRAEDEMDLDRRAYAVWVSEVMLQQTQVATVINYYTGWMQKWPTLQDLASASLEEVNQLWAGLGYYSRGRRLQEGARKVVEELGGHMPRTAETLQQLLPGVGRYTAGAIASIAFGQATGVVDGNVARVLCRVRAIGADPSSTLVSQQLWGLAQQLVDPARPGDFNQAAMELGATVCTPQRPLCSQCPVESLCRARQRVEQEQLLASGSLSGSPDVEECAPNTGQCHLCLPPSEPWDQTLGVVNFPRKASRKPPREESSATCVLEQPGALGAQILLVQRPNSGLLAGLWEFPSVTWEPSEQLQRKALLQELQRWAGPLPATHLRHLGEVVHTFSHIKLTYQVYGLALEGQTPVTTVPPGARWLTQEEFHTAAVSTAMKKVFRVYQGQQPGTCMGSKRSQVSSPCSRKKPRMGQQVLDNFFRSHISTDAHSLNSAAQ

# Variants of: B1
# assay comment: 8OG:A repair function score (normalized; synonymous = 0, nonsense = -1) (normalized log-likelihood score); higher = more repair activity (WT-like);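 note: cells sorted at 72 h after reporter transfection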
# cond: with 8OG:A DNA repair reporter (GFP) in HEK-293 MUTYH KO cells
property name: 8OG:A repair function score
Please respond with just the number, no unit label.

Ask: Entry G412Q : reported 8OG:A repair function score = ?
Reply: -0.645

Ask: Look up 8OG:A repair function score for this variant: Q233F
Reply: 0.305

Ask: So what does the record say about 8OG:A repair function score for D77I ?
Reply: -0.0954

Ask: I'd like to know its 8OG:A repair function score. The variant in question is K422L
Reply: -0.353

Ask: Which 8OG:A repair function score is listed for T346S ?
Reply: -0.168

Ask: Give the measured 8OG:A repair function score of V102I .
Reply: -0.00401

Ask: Form field: reported 8OG:A repair function score of T130S
Reply: 0.107

Ask: Item E350S has what recorded 8OG:A repair function score?
Reply: 0.0422

Ask: Please give the measured 8OG:A repair function score for this variant: Q78C
Reply: -0.996

Ask: Query: 8OG:A repair function score; subject: S298Q
Reply: -0.0174

Ask: Requested field: 8OG:A repair function score. Item: T424D
Reply: -0.256

Ask: # input variant: G412M ; wanted: its 8OG:A repair function score
Reply: -0.67

Ask: What 8OG:A repair function score value was documented for this variant, Q363F ?
Reply: -0.479

Ask: Find the recorded 8OG:A repair function score belonging to R2H and report it.
Reply: -0.00678

Ask: Data request, read-out 8OG:A repair function score, for S136K
Reply: 0.0771

Ask: Which 8OG:A repair function score value is on record for R98C ?
Reply: -0.578

Ask: What does the data say about its 8OG:A repair function score? Entry: L234D
Reply: -1.03

Ask: Given the variant Y469G , what is its reported 8OG:A repair function score?
Reply: -0.451

Ask: What value of measured 8OG:A repair function score is listed for L180N ?
Reply: -1.02

Ask: Entry A51I has what 8OG:A repair function score?
Reply: -0.041

Ask: Find the recorded 8OG:A repair function score belonging to Q472P and report it.
Reply: 0.0113

Ask: Item under review: A177T . Reported 8OG:A repair function score?
Reply: -0.226
